method-summary: Drug metabolism in Sprague-Dawley rat liver microsomes after 30 mins by LC-ESI-MS analysis
Type: ADME
details: Sprague-Dawley, liver microsomes
quantity: Km at 0.5 h (µM)
Answers are plain numbers, in µM.

IN: State its Km at 0.5 h for this compound: O=C(Nc1ccc(Cl)c(Cl)c1)Nc1ccc(Cl)cc1O
OUT: 3.29

----------
method-summary: Drug metabolism in B6C3F1 mouse liver microsomes after 30 mins by LC-ESI-MS analysis
Type: ADME
details: B6C3F1, mouse, liver microsomes
quantity: Km at 0.5 h
Quick note: number first, unit second.

IN: State its Km at 0.5 h for this compound: O=C(Nc1ccc(Cl)c(Cl)c1)Nc1ccc(Cl)cc1O
OUT: 2.46 µM

----------
method-summary: Drug metabolism in cynomolgus monkey liver microsomes after 30 mins by LC-ESI-MS analysis
Type: ADME, Macaca fascicularis
details: liver microsomes
quantity: Km at 0.5 h

IN: State its Km at 0.5 h for this compound: O=C(Nc1ccc(Cl)c(Cl)c1)Nc1ccc(Cl)cc1O
OUT: 1.4 µM
